Target: human CXCR4 (human, UniProt P61073 1-352)
Sequence (P61073 whole entry): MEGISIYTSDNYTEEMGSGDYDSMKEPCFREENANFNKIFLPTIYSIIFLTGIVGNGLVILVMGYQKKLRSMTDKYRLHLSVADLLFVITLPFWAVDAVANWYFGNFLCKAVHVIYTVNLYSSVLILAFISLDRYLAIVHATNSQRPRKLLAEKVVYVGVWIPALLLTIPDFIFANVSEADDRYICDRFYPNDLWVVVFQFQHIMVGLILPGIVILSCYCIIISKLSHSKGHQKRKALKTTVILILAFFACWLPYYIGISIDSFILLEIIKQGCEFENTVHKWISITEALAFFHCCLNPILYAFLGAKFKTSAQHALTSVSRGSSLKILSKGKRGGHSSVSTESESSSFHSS
Test: cell-based or functional assay
Reported Chemotaxis IC50 (M) +HSA by item:
All answers are understood in M, so give the number only.

Request: What value of Chemotaxis IC50 (M) +HSA has been recorded for this entry: 4CXCR010G10 (VHH, Alexa-647 label in the competition FACS of D-2, also called P4CXCR10G10; not shown: C-terminal c-myc tag and His6 tag) VHH: EVQLVESGGGLVQAGGSLRLSCAASGRTFNSYAMAWFRQAPGKERENVAAIRWSGGRATKYADSVRGRFTISKDNAKNTVYLQMSSLKPEDTAVYYCATQTYYRSGLASTRDFDSWGQGTQVTVSS
Result: 7.74e-10

More entries:
Request: What value of Chemotaxis IC50 (M) +HSA has been recorded for this entry: 4CXCR015A01 (VHH, not shown: small tags and cut ends, also called 15A1; P4CXCR15A01) VHH: EVQLVESGGGLVQAGGSLRLSCAASGRTFSRAAMGWFRQAPGKEREFVGCALSSAGSALTADSVKGRFTISRDNAKNMVYLQMNNLKPEDTAVYSCVAGGYCTRAGVYPYWGQGTQVTVSS
Result: 1.18e-09

Request: Proceed to 4CXCR010E09 (VHH, Monovalent Nanobody from E. coli; also called 10E9; P4CXCR10E09; not shown: C-terminal c-myc tag and His6 tag) VHH: EVQLVESGGGLVQTGGSLRLSCAASGRTFSSYAMGWFRRAPGKEREFVATISWRGDRKYYSESVKDRFTIARGRSNKNAVYLQMNSLKPEDTAVYYCAKDRAPYGSGSPDVKQYEHWGQGTQVTVSS
Result: 1.93e-09
